# System: Key Grass and Sedge Weeds as well as Grass Crops
# assay_text: Post-emergent Test II herbicidal activity (Table 16)
# Format: in vivo
# assay_setup: Cyperus esculentus, post-emergence, 336 h, yellow nutsedge (Cyperus esculentus), 70 g ai/ha, 14 d, read-out: Visual Growth Reduction (%) 14 Days After Application, CYPES
Consider the following molecules; for each one, report its pest or weed control at 70 g/ha.

Lookup result for COC(=O)c1nc(-c2cc3occc3cc2F)nc(N)c1OC [Compound 2.14] ; measured pest or weed control at 70 g/ha: 0 to 29%

So, COc1c(N)nc(-c2ccc3cc[nH]c3c2)nc1C(=O)O [Compound 1.33] ? Its pest or weed control at 70 g/ha was 0 to 29%

Per the records, this molecule ( COC(=O)c1nc(-c2ccc(Cl)c3ccoc23)c(F)c(N)c1Cl [Compound 2.24] ) has pest or weed control at 70 g/ha equal to 75 to 84%

Just so you know, measured pest or weed control at 70 g/ha for COc1c(C(=O)O)nc(-c2ccc3cc[nH]c3c2F)c(F)c1N [Compound 1.17] came out at 45 to 59%

Documented pest or weed control at 70 g/ha of COC(=O)c1nc(-c2ccc3sccc3c2)c(Cl)c(N)c1Cl [Compound 3.01] : 0 to 29%

Lab note: COC(=O)c1nc(-c2cc3ccoc3cc2F)nc(N)c1OC [Compound 2.05] gave pest or weed control at 70 g/ha of 0 to 29%

molecule Nc1c(F)c(-c2ccc3cc[nH]c3c2F)nc(C(=O)O)c1Cl [Compound 1.16] , pest or weed control at 70 g/ha observed: 60 to 74%

// sample COC(=O)c1nc(-c2ccc3cc[nH]c3c2)cc(N)c1Cl [Compound 1.21] , its pest or weed control at 70 g/ha was 0 to 29%

Measured pest or weed control at 70 g/ha of COC(=O)c1nc(-c2ccc3cc[nH]c3c2F)c(Cl)c(N)c1Cl [Compound 1.07] : 0 to 29%

Entry under test: COc1c(N)nc(-c2ccc(Cl)c3occc23)nc1C(=O)O [Compound 2.22] . Its pest or weed control at 70 g/ha was 0 to 29%

# pest or weed control at 70 g/ha (molecule: COC(=O)c1nc(-c2ccc(Cl)c3ccoc23)nc(N)c1OC [Compound 2.26] ) is 0 to 29%

Sample Nc1c(F)c(-c2ccc3occc3c2)nc(C(=O)O)c1Cl [Compound 2.02] ; pest or weed control at 70 g/ha observed: 0 to 29%

The reported value for COC(=O)c1nc(-c2ccc(Cl)c3[nH]ccc23)nc(N)c1OC [Compound 1.45] in terms of pest or weed control at 70 g/ha is 0 to 29%

Sure, the documented pest or weed control at 70 g/ha for COC(=O)c1nc(-c2ccc3sccc3c2)cc(N)c1Cl [Compound 3.05] is 0 to 29%

Reported pest or weed control at 70 g/ha for COC(=O)c1nc(-c2ccc3cc[nH]c3c2)c(C)c(N)c1Cl [Compound 1.28] was 0 to 29%

Per the records, this molecule ( C=Cc1c(N)nc(-c2ccc3cc[nH]c3c2F)nc1C(=O)O [Compound 1.39] ) has pest or weed control at 70 g/ha equal to 0 to 29%

pest or weed control at 70 g/ha measured on Nc1c(Cl)c(C(=O)O)nc(-c2ccc3sccc3c2)c1Cl [Compound 3.02] = 0 to 29%

Memo: COC(=O)c1nc(-c2ccc3sccc3c2)c(F)c(N)c1Cl [Compound 3.03] , reported pest or weed control at 70 g/ha: 45 to 59%

According to the records, this molecule COC(=O)c1nc(-c2ccc(Cl)c3occc23)nc(N)c1OC [Compound 2.21] displays pest or weed control at 70 g/ha of 0 to 29%

###

Hi there, I'd appreciate the recorded pest or weed control at 70 g/ha for every entry that follows.
# System: Key Broadleaf Weed and Crop Species
# assay_text: Post-emergent Test II herbicidal activity (Table 15)
# Type: in vivo
# assay_setup: Abutilon theophrasti, post-emergence, 336 h, velvetleaf (Abutilon theophrasti), 70 g ai/ha, 14 d, read-out: Visual Growth Reduction (%) 14 Days After Application, ABUTH
# Text: Post-emergent Test II: Seeds or nutlets of the desired test plant species were planted in Sun Gro Metro-Mix® 360 planting mixture, which typically has a pH of 6.0 to 6.8 and an organic matter content of about 30 percent, in plastic pots with a surface area of 64 square centimeters. When required to ensure good germination and healthy plants, a fungicide treatment and/or other chemical or physical treatment was applied. […]

# Cn1ccc2cc(-c3nc(C(=O)O)c(Cl)c(N)c3F)ccc21 with Key Broadleaf Weed and Crop Species: pest or weed control at 70 g/ha is 0 to 29%

Hey, Key Broadleaf Weed and Crop Species data for COC(=O)c1nc(-c2cc3ccoc3cc2F)cc(N)c1Cl : pest or weed control at 70 g/ha came out at 85 to 94%

Entry COC(=O)c1nc(-c2ccc3cc[nH]c3c2F)nc(N)c1Cl , tested on Key Broadleaf Weed and Crop Species, has a reported pest or weed control at 70 g/ha of 60 to 74%

Record COC(=O)c1nc(-c2ccc3ccoc3c2F)c(F)c(N)c1Cl has Key Broadleaf Weed and Crop Species pest or weed control at 70 g/ha equal to 85 to 94%

Entry Nc1c(F)c(-c2ccc3[nH]ccc3c2)nc(C(=O)O)c1Cl ; assay system Key Broadleaf Weed and Crop Species; pest or weed control at 70 g/ha recorded at 0 to 29%

Considering Nc1c(F)c(-c2cc3[nH]ccc3cc2F)nc(C(=O)O)c1Cl , its pest or weed control at 70 g/ha with Key Broadleaf Weed and Crop Species was recorded as 0 to 29%

pest or weed control at 70 g/ha value, target or system Key Broadleaf Weed and Crop Species, for COC(=O)c1nc(-c2ccc3cn[nH]c3c2)c(F)c(N)c1Cl : 0 to 29%

Item: COC(=O)c1nc(-c2c(F)cc3cc[nH]c3c2F)cc(N)c1Cl | System: Key Broadleaf Weed and Crop Species | pest or weed control at 70 g/ha: 85 to 94%

Record COC(=O)c1nc(-c2ccc3cc[nH]c3c2)nc(N)c1Cl ; system Key Broadleaf Weed and Crop Species; pest or weed control at 70 g/ha = 0 to 29%

###

# Test system: Key Grass and Sedge Weeds as well as Grass Crops
# assay_text: Post-emergent Test II herbicidal activity (Table 16)
# Assay type: in vivo
# assay_setup: Zea mays, post-emergence, 336 h, maize, corn (Zea mays), 35 g ai/ha, 14 d, read-out: Visual Growth Reduction (%) 14 Days After Application, ZEAMX
# From the text: Post-emergent Test II: Seeds or nutlets of the desired test plant species were planted in Sun Gro Metro-Mix® 360 planting mixture, which typically has a pH of 6.0 to 6.8 and an organic matter content of about 30 percent, in plastic pots with a surface area of 64 square centimeters. When required to ensure good germination and healthy plants, a fungicide treatment and/or other chemical or physical treatment was applied. […]
property_label: pest or weed control at 35 g/ha

Lab book: pest or weed control at 35 g/ha of COC(=O)c1nc(-c2cccc3[nH]ccc23)c(F)c(N)c1Cl [Compound 1.40] noted as 0 to 29%

get_value(item= COc1c(C(=O)O)nc(-c2ccc3cc[nH]c3c2F)c(F)c1N [Compound 1.17] , readout=pest or weed control at 35 g/ha) returns 60 to 74%

So, C=Cc1c(N)nc(-c2ccc3cc[nH]c3c2F)nc1C(=O)O [Compound 1.39] ? Its pest or weed control at 35 g/ha was 0 to 29%

Reported pest or weed control at 35 g/ha for COc1c(N)nc(-c2ccc3cc[nH]c3c2F)nc1C(=O)O [Compound 1.35] was 0 to 29%

Entry Nc1cc(-c2cc3[nH]ccc3cc2F)nc(C(=O)O)c1Cl [Compound 1.26] ; pest or weed control at 35 g/ha = 0 to 29%

###

# System: Key Broadleaf Weed and Crop Species
# assay_text: Post-emergent Test II herbicidal activity (Table 15)
# Assay type: in vivo
# assay_setup: Chenopodium album, post-emergence, 336 h, lambsquarters (Chenopodium album), 140 g ai/ha, 14 d, read-out: Visual Growth Reduction (%) 14 Days After Application, CHEAL
Provide the reported pest or weed control at 140 g/ha of each item.

compound COC(=O)c1nc(-c2ccc(Cl)c3occc23)cc(N)c1Cl , pest or weed control at 140 g/ha observed: 95 to 100%

So, COC(=O)c1nc(-c2cc3[nH]ccc3cc2F)cc(N)c1Cl ? Its pest or weed control at 140 g/ha was 60 to 74%

Nc1c(F)c(-c2cccc3cc[nH]c23)nc(C(=O)O)c1Cl yielded pest or weed control at 140 g/ha of 60 to 74%

Form field pest or weed control at 140 g/ha, entry COC(=O)c1nc(-c2cccc3cn[nH]c23)c(F)c(N)c1Cl : 60 to 74%

pest or weed control at 140 g/ha in this record for COC(=O)c1nc(-c2cc3ccoc3cc2F)nc(N)c1OC : 45 to 59%

Lab note: COC(=O)c1nc(-c2cc3occc3cc2F)cc(N)c1Cl gave pest or weed control at 140 g/ha of 95 to 100%

Where do the numbers come from? From patent US20170050957A1.
